target: Inositol-Requiring Enzyme 1 (IRE1) (Homo sapiens); assay: biochemical; set-up: gene ERN1; IRE1 cytoplasmic kinase-RNase construct; kinetic fluorescence RNA cleavage (FAM/BHQ XBP1 stem-loop) by IRE1 LKR Q470-L977; settings: RNase inhibition; inhibitor; read-out: EC50 (RNase biochemical assay), inhibitors
Sequence (O75460 547-977): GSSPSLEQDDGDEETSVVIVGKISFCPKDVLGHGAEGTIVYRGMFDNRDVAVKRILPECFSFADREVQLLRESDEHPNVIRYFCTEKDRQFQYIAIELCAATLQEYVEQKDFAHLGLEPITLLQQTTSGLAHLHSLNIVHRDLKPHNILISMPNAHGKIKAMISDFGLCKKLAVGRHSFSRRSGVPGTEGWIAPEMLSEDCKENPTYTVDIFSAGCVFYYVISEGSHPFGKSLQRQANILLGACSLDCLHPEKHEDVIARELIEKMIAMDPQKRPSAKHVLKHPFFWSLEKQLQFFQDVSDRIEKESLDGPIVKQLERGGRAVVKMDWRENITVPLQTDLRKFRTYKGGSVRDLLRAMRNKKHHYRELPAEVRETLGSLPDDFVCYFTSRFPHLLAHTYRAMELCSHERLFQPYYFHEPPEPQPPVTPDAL
measured-metric: EC50 (nM)

[a] Cc1ccc2c(NC(=O)OC(C)C)cccc2c1Oc1ncccc1-c1ccnc(N[C@H]2CCCNC2)n1
[b] Cc1ccc2c(NC(=O)C#CCC(C)(C)C)cccc2c1Oc1ncccc1-c1ccnc(N[C@H]2CCCNC2)n1
[c] Cc1ccc2c(NC(=O)OCC(C)C)cccc2c1Oc1ncccc1-c1ccnc(N[C@H]2CCCNC2)n1
**Query** Re-order the entries listed above so their EC50 values fall from first to last. # the answer lists labels in the order requested
**Result** b, a, c
(b: 52 nM, a: 36 nM, c: 18 nM)

[P] Cc1ccc2c(NC(=O)OCC(C)(C)C)cccc2c1Oc1ncccc1-c1ccnc(N[C@H]2CCCNC2)n1
[Q] Cc1ccc2c(NC(=O)C#CC(C)(C)C)cccc2c1Oc1ncccc1-c1ccnc(N[C@H]2CCCNC2)n1
**Query** Which value of EC50 is smaller, the one for P or the one for Q ? Output the label that corresponds to your choice.
**Result** Q
(Q: 35 nM, P: 68 nM)
